List of pIC50 values.
- TARGET_SYSTEM: Bromodomain-containing protein 4 (Homo sapiens)
- ASSAY_EXPLANATION: Inhibition of GST-tagged BRD4 bromodomain (unknown origin) using biotinylated histone H4KAc peptide (1 to 21 residues) as substrate by HTRF assay
Note on units: pIC50 is unitless, being -log10 of a concentration expressed in mol/L.

Reference set, count: 7
Cc1noc(C)c1-c1nc2sc3c(c2c(=O)[nH]1)CCN(C)C3 5.62
Cc1cc(-c2nc3sc4c(c3c(=O)[nH]2)CCN(C)C4)cc(C)c1OCCOCc1ccc(/C=C/C(=O)NO)cc1 6.01
COC(=O)CN1CCc2c(sc3nc(-c4c(C)noc4C)[nH]c(=O)c23)C1 5.18
O=c1[nH]c(-c2ccc(O)cc2)nc2sc3c(c12)CCCC3 5.24
Cc1cc(-c2nc3sc4c(c3c(=O)[nH]2)CCN(C)C4)cc(C)c1OCCCCCC(=O)NO 6.15
Cc1cc(-c2nc3sc4c(c3c(=O)[nH]2)CCN(C)C4)cc(C)c1OCCCCCC(=O)Nc1ccccc1N 5.66
Cc1cc(-c2nc3sc4c(c3c(=O)[nH]2)CCCC4)cc(C)c1O 5.74

Given `Cc1cc(-c2nc3sc4c(c3c(=O)[nH]2)CCN(C)C4)cc(C)c1OCc1ccc(C(=O)Nc2ccccc2N)cc1` , respond with its pIC50. 5.59

---

- ASSAY_EXPLANATION: AUC (0 to infinity) in Sprague-Dawley rat at 30 mg/kg, po measured up to 1440 mins by UPLC-QTOF/MS analysis
- Format: ADME, organism-based
- Set-up: dose 30 mg/kg, route oral, time infinity
- PROTOCOL_CONDITIONS: in vivo
MEASURED_PROPERTY: AUC(0-inf) (ng·h/mL)
Write the value in ng·h/mL as a bare number.

Fill in AUC(0-inf) for record `Cc1cc(-c2nc3sc4c(c3c(=O)[nH]2)CCN(C)C4)cc(C)c1OCCCCCC(=O)NO` 63300

---

- TARGET_SYSTEM: Bromodomain testis-specific protein (Homo sapiens)
- ASSAY_EXPLANATION: Inhibition of human recombinant His-tagged BRDT BD1 domain expressed in Escherichia coli BL21(DE3)-R3-pRARE2 cells by AlphaScreen assay
MEASURED_PROPERTY: IC50

For the compound `Cc1cc(-c2nc3sc4c(c3c(=O)[nH]2)CCN(C)C4)cc(C)c1OCCCCCC(=O)NO` , give its reported IC50. > 20 µM

---

- TARGET_SYSTEM: Histone deacetylase 8 (Homo sapiens, UniProt Q9BY41)
- Sequence (Q9BY41 whole entry): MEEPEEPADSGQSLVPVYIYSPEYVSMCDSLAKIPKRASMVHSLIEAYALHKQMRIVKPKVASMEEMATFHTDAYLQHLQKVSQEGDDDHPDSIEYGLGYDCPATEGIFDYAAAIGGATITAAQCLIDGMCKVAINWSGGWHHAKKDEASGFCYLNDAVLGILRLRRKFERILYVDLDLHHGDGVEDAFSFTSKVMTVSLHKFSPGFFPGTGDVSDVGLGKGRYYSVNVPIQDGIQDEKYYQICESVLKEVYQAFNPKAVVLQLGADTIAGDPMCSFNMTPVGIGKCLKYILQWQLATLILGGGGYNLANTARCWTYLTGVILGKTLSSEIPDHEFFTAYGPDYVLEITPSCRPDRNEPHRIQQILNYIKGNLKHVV
MEASURED_PROPERTY: pIC50
The quantity pIC50 is defined as the negative base-10 logarithm of the molar concentration.

Indicate its recorded pIC50; the compound in question is `Cc1cc(-c2nc3sc4c(c3c(=O)[nH]2)CCN(C)C4)cc(C)c1OCCCCCC(=O)NO` 6.78

---

- TARGET_SYSTEM: Bromodomain-containing protein 2 (Homo sapiens, UniProt P25440)
- Sequence (P25440 whole entry, the tested form may be a part): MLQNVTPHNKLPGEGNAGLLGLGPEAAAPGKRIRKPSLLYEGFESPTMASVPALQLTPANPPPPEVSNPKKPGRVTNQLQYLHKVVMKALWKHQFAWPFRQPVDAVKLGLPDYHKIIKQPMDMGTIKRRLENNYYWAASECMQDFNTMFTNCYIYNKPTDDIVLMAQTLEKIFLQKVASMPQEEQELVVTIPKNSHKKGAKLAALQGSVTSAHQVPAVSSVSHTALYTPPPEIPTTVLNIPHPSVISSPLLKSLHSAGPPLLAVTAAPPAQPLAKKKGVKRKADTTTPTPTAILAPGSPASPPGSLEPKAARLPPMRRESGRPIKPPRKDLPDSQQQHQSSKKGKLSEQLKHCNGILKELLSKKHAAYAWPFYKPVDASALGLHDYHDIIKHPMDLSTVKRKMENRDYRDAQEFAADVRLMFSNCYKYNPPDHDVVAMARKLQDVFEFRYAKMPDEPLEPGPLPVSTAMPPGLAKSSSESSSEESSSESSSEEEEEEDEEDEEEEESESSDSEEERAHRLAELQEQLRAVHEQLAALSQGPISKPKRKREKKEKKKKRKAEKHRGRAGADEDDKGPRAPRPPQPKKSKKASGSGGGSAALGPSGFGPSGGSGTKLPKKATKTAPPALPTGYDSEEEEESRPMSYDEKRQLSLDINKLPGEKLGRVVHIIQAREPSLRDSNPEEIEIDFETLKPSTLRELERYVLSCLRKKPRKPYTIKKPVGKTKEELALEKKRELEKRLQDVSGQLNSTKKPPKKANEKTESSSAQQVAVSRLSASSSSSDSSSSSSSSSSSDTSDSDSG
- ASSAY_EXPLANATION: Inhibition of human recombinant His-tagged BRD2 BD2 domain expressed in Escherichia coli BL21(DE3)-R3-pRARE2 cells by AlphaScreen assay
MEASURED_PROPERTY: IC50

Fill in reported IC50 for this entry: `Cc1cc(-c2nc3sc4c(c3c(=O)[nH]2)CCN(C)C4)cc(C)c1OCCCCCC(=O)NO` > 20 µM

---

- Tested on: SW-620
- ASSAY_EXPLANATION: Antiproliferative activity against human SW620 cells assessed as reduction in cell viability measured after 24 to 48 hrs by MTT assay
- Format: functional, cell-based
Lab note: anything with IC50 below 10 µM is marked label 1; values at 10 µM or higher are marked label 0.

Sample answers from the record:
Cc1noc(C)c1-c1nc2sc3c(c2c(=O)[nH]1)CCN(CC(=O)Nc1ccccc1N)C3 label 0
Cc1cc(-c2nc3sc4c(c3c(=O)[nH]2)CCN(C)C4)cc(C)c1OCCOCc1ccc(/C=C/C(=O)NO)cc1 label 1
Cc1cc(-c2nc3sc4c(c3c(=O)[nH]2)CCN(C)C4)cc(C)c1OCCCC(=O)NO label 1
Cc1noc(C)c1-c1nc2sc3c(c2c(=O)[nH]1)CCN(CCCCCC(=O)Nc1ccccc1N)C3 label 0
Cc1cc(-c2nc3sc4c(c3c(=O)[nH]2)CCN(C)C4)cc(C)c1OCc1ccc(C(=O)NO)cc1 label 1

Hello, I'm reviewing records and need to know if IC50 of `Cc1cc(-c2nc3sc4c(c3c(=O)[nH]2)CCN(C)C4)cc(C)c1OCc1cccc(C(=O)NO)c1` is below 10 µM. Could you check? label 1

---

- TARGET_SYSTEM: Histone deacetylase 11 (Homo sapiens, UniProt Q96DB2)
- Sequence (Q96DB2 whole entry): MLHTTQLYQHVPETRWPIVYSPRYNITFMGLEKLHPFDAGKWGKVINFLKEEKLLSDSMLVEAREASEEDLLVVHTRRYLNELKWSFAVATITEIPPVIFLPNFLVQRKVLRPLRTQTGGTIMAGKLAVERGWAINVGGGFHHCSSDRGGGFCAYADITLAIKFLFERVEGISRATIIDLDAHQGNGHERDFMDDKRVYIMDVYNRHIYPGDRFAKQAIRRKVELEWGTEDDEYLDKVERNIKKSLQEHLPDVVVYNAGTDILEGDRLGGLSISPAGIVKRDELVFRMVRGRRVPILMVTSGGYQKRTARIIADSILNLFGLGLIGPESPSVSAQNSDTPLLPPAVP
pIC50: −log10 of the molar value.
MEASURED_PROPERTY: pIC50

Check Histone deacetylase 11 (Homo sapiens, UniProt Q96DB2) data and give pIC50 for `Cc1cc(-c2nc3sc4c(c3c(=O)[nH]2)CCN(C)C4)cc(C)c1OCCCCCC(=O)NO` . < 5.00

---

- TARGET_SYSTEM: Bromodomain-containing protein 3 (Homo sapiens, UniProt Q15059)
- Sequence (Q15059 whole entry, the tested form may be a part): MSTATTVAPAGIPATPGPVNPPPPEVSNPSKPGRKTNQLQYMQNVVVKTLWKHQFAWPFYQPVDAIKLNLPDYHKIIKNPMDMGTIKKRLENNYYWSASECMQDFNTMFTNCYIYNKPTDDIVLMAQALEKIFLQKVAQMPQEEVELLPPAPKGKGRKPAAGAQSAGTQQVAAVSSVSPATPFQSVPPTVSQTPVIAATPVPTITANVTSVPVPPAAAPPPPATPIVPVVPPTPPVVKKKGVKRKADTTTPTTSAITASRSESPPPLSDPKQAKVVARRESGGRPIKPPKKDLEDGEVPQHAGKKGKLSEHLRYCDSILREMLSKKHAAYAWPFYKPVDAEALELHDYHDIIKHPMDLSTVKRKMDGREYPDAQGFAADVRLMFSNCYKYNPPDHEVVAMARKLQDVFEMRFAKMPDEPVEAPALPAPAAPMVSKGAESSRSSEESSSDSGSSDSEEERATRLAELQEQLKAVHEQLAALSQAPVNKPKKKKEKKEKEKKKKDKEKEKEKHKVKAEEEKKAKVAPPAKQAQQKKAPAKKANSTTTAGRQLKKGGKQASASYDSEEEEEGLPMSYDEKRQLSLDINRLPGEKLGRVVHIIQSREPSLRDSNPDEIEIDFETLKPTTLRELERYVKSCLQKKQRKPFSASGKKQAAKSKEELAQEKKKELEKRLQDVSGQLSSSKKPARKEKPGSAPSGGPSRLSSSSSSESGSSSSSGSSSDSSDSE
- ASSAY_EXPLANATION: Inhibition of human recombinant His-tagged BRD3 BD1 domain expressed in Escherichia coli BL21(DE3)-R3-pRARE2 cells by AlphaScreen assay
MEASURED_PROPERTY: IC50

Please report IC50 for the following compound: `Cc1cc(-c2nc3sc4c(c3c(=O)[nH]2)CCN(C)C4)cc(C)c1OCCCCCC(=O)NO` > 20 µM

---

- TARGET_SYSTEM: Bromodomain-containing protein 3 (Homo sapiens, UniProt Q15059)
- ASSAY_EXPLANATION: Inhibition of human recombinant His-tagged BRD3 BD2 domain expressed in Escherichia coli BL21(DE3)-R3-pRARE2 cells by AlphaScreen assay
pIC50: −log10 of the molar value.
MEASURED_PROPERTY: pIC50

Using known records, supply pIC50 for `Cc1cc(-c2nc3sc4c(c3c(=O)[nH]2)CCN(C)C4)cc(C)c1OCCCCCC(=O)NO` < 4.70

---

- System: HCT-116
- ASSAY_EXPLANATION: Antiproliferative activity against human HCT116 cells assessed as reduction in cell viability measured after 24 to 48 hrs by MTT assay
- Format: functional, cell-based
Let's look at some molecules and their measured pIC50.
pIC50 field: float, defined as -log10 of concentration (mol/L).

Identify pIC50 associated with the molecule `Cc1noc(C)c1-c1nc2sc3c(c2c(=O)[nH]1)CCN(CC(=O)Nc1ccccc1N)C3` 4.55

Determine from records and report pIC50 for `CCN1CCc2c(sc3nc(-c4cc(C)c(O)c(C)c4)[nH]c(=O)c23)C1` 5.05

---

- System: HCT-116
- ASSAY_EXPLANATION: Antiproliferative activity against human HCT116 cells assessed as reduction in cell viability measured after 24 to 48 hrs by MTT assay
- Type: functional, cell-based
Each item that follows carries a reported pIC50.
Would you please state pIC50, meaning minus log10 of the concentration in mol/L, as a bare number?

Provide HCT-116 pIC50 reading for `Cc1cc(-c2nc3sc4c(c3c(=O)[nH]2)CCN(C)C4)cc(C)c1OCCCC(=O)NO` . 5.68

Retrieve pIC50 on HCT-116; query `Cc1noc(C)c1-c1nc2sc3c(c2c(=O)[nH]1)CCN(CC(=O)NO)C3` 4.64

State pIC50 (HCT-116) of `Cc1cc(-c2nc3sc4c(c3c(=O)[nH]2)CCN(C)C4)cc(C)c1OCCOCc1ccc(/C=C/C(=O)NO)cc1` . 6.16

# return pIC50 of `COC(=O)CCCN1CCc2c(sc3nc(-c4c(C)noc4C)[nH]c(=O)c23)C1` (system: HCT-116) 4.90

Fetch value of pIC50 on HCT-116 for `COC(=O)CN1CCc2c(sc3nc(-c4c(C)noc4C)[nH]c(=O)c23)C1` . 4.79

Report the value of pIC50 obtained on HCT-116 for `Cc1cc(-c2nc3sc4c(c3c(=O)[nH]2)CCN(C)C4)cc(C)c1OCCCCCC(=O)Nc1ccccc1N` . 5.16

# return pIC50 of `Cc1cc(-c2nc3sc4c(c3c(=O)[nH]2)CCN(C)C4)cc(C)c1OCc1cccc(C(=O)Nc2ccccc2N)c1` (system: HCT-116) 5.34
